# Test system: NCI/ADR-RES ovarian
# testSummary: NCI-60 one-dose screen, 48 h (100 = growth as untreated, 0 = no growth, -100 = all killed)
# measurementContext: 10 µM unless noted
The panel holds about 83,000 compounds, 20% with a hit somewhere; the sample as a whole holds those more often.
Recorded measurements of growth, one per entry
A number alone suffices; assume %.

A selection of reference data follows.
structureSmiles | growth / %
CNC(=O)c1cc(Oc2ccc(NC(=O)c3[nH]c(SC)nc3-c3ccc(F)cc3)cc2)ccn1 | 67.4
COc1ccc([C@@H]2[C@@H](Cl)C(=O)N2c2cc(OC)c(OC)c(OC)c2)cc1C | 16
CC(=O)[C@@]1(O)[C@H](C)C[C@H]2[C@@H]3C=C(C)C4=Cc5c(cnn5-c5ccccc5)C[C@]4(C)[C@H]3[C@@H](O)C[C@@]21C | 27.1

Now, please, on to the next compound.
What does the record list as growth for CC1=NOCC(=O)N1 ?
110

====

# Test system: NCI-H226 lung
# testSummary: NCI-60 one-dose screen, 48 h (100 = growth as untreated, 0 = no growth, -100 = all killed)
# measurementContext: 10 µM unless noted
The panel holds about 83,000 compounds, 20% with a hit somewhere; the sample as a whole holds those more often.
Recorded measurements of growth, one per entry
A number alone suffices; assume %.

A selection of reference data follows.
molecule | attributeMeasured | testResult
Cc1ccccc1CNc1ncnc2[nH]ncc12 | growth | 91.9
CCOC(CN1CCN(CC(C)C(=O)c2ccccc2)CC1)c1ccccc1 (stereo unspecified) | growth | 91.2
Clc1cn2cc(-c3ccc(Cl)c(Cl)c3Cl)nc2s1 | growth | 90.1
CC(=O)N[C@@H](CCC(N)=O)C(=O)O | growth | 87.9

What does the record list as growth for O=C(N=Nc1c(Cl)c(O)c2ccccc2c1O)C(=O)Nc1cccc(C(F)(F)F)c1 ?
88.5

What does the record list as growth for COc1cc2c(cc1OC)C(=O)C(Br)CC2 (stereo unspecified) ?
90.8

====

# System: SW-620 colon
# testSummary: NCI-60 one-dose screen, 48 h
# measurementContext: 10 µM unless noted
This is part of a sample that, as a whole, favours compounds with a hit. Of some 83,000 tested, about 20% had one in any assay. Active and inactive are the calls of the source. Rule for the calls: active = growth percent below 10; inactive = the rest.
Please answer using one outcome listed in active, inactive

Worked examples follow.
compound | groupLabel
CN(C)CCOc1nc2c3ccncc3cc(-c3cccc(Cl)c3)c2c2cnccc12 | inactive
CC(CN1CCN(C)CC1)CN1c2ccccc2Sc2ccc(C(F)(F)F)cc21 (stereo not drawn) | inactive

Query: recorded result category for COc1cc2c(cc1OC)C(=O)C(Br)CC2 (stereo not drawn) in this test
inactive

Query: recorded result category for COS(=O)(=O)CCN(CCOS(C)(=O)=O)S(C)(=O)=O in this test
inactive

Query: recorded result category for CC(C)N=C1CCCC1C(=S)SSC(=S)C1CCCC1=NC(C)C (stereo not drawn) in this test
inactive

Query: recorded result category for CCCCCCCCCC1=NC(C)(C)CN1C(C)(C)CO in this test
inactive

Query: recorded result category for COc1ccc(-c2[nH]nc(N)c2-c2cc(OC)c(OC)c(OC)c2)cc1 in this test
inactive

Query: recorded result category for Nc1ccc(C(OC(=O)c2cc3ccccc3c(Cc3c(O)c(C(=O)OC(c4ccc(N)cc4)(c4ccc(N)cc4)c4ccc(N)cc4)cc4ccccc34)c2O)(c2ccc(N)cc2)c2ccc(N)cc2)cc1 in this test
inactive

Query: recorded result category for N=c1n(Cc2ccccc2)c(N)cc(=O)n1Cc1ccccc1 in this test
inactive

Query: recorded result category for O=C(NO)c1ccc(NCc2csc3ccccc23)cc1 in this test
inactive

Query: recorded result category for COc1ccc(NC(=O)c2ccc(C(F)(F)F)nc2Nc2ccc(Cl)cc2C)cc1Cl in this test
inactive

Query: recorded result category for COc1ccc(-c2nnc(SCC(=O)Nc3ccc(C(=O)/C=C/c4ccc(Cl)cc4)cc3)n2-c2ccccc2)cc1 in this test
inactive

Query: recorded result category for COc1cc2nccc(Oc3ccc(NC(=O)C4(C(=O)Nc5ccc(F)cc5)CC4)cc3)c2cc1O in this test
inactive

Query: recorded result category for Cc1ccc(-c2cnc3sc4ccc(Cl)cc4n23)cc1 in this test
inactive

Query: recorded result category for O=c1[nH]c2cc(Cl)c(Cl)cc2o1 in this test
inactive

====

# Tested on: SK-OV-3 ovarian
# testSummary: NCI-60 one-dose screen, 48 h
# measurementContext: 10 µM unless noted
This is part of a sample that, as a whole, favours compounds with a hit. Of some 83,000 tested, about 20% had one in any assay. Active and inactive are the calls of the source. Rule for the calls: active = growth percent below 10; inactive = the rest.
Please answer using one outcome listed in active, inactive

Worked examples follow.
compound | groupLabel
c1ccc(C2=Nc3ccccc3SC2)cc1 | inactive
Cc1cc(O)c(C2=NN(c3ccc(S(N)(=O)=O)cc3)C(c3ccc(Cl)cc3)C2)c(C)c1Cl (centres undefined) | inactive
COC(=O)C1(C)COP(=O)(NC23CC4CC(CC(C4)C2)C3)OC1 (centres undefined) | inactive
COc1ccc(-c2nnc(SCC(=O)Nc3ccc(C(=O)/C=C/c4ccc(Cl)cc4)cc3)n2-c2ccccc2)cc1 | inactive
C=CCn1c(C)nc2cc(Nc3nc(N4CCOCC4)nc4nc[nH]c34)ccc21 | inactive
O=S(=O)(NCC[C@@H]1C[C@H]1c1ccc2ccccc2c1)c1ccc(C(F)(F)F)cc1 | inactive
CCN(CC)CCCCCCCNc1cc(OC)cc2c(C)ccnc12 | inactive
COc1ccc(/C=C/C(=O)c2ccc(NC(=O)CSc3nnc(-c4ccc(Cl)cc4)n3-c3ccccc3)cc2)cc1 | inactive
O=C1OC(c2ccc(-c3ccccc3)cc2)=C/C1=C/c1c(Cl)cccc1Cl | inactive
COc1ccc(-c2nn(-c3cccc(Cl)c3)cc2/C=C2\C(=N)N(c3ccccc3)N=C2N)cc1 | inactive

Query: recorded result category for CC(C)[C@H](CN)NC[C@H](C)NS(=O)(=O)c1ccc(C(C)(C)C)cc1 in this test
inactive

Query: recorded result category for OC(c1cc(-c2ccc(C(F)(F)F)cc2)nc(-c2ccc(C(F)(F)F)cc2)c1)C1CCCCN1 (centres undefined) in this test
active

Query: recorded result category for CCCCCNCCCCCNc1cc(OC)cc2cccnc12 in this test
inactive

Query: recorded result category for CN1CCN(c2ccc(N3Cc4ccccc4OC4=C3C(=O)c3c(O)ccc(O)c3C4=O)cn2)CC1 in this test
inactive

====

# Tested on: CAKI-1 renal
# testSummary: NCI-60 one-dose screen, 48 h
# measurementContext: 10 µM unless noted
The panel holds about 83,000 compounds, 20% with a hit somewhere; the sample as a whole holds those more often. Active and inactive are the calls of the source. The calls were made as follows: active = growth percent below 10; inactive = the rest.
Please answer using one outcome listed in active, inactive

compound | systemUnderTest | groupLabel
CCC(=O)NC(O)C(Cl)(Cl)C(C)Cl (stereo not drawn) | CAKI-1 renal | inactive

Query: recorded result category for O=C(CI)NCCNc1cccc2c(S(=O)(=O)O)cccc12 in this test
inactive

Query: recorded result category for O=C(c1ccc(C(F)(F)F)c(Cl)c1)N(Cc1ccc(Cl)cc1)c1ccc(-c2cc(C(F)(F)F)[nH]n2)c(O)c1 in this test
active

Query: recorded result category for O=C(/C=C/c1cn(-c2ccccc2)nc1-c1cccc(Nc2ccnc3cc(Cl)ccc23)c1)c1ccc2c(c1)OCO2 in this test
inactive

Query: recorded result category for C=C(C)[C@@H]1CC[C@]2(C)[C@H](CC=C3[C@@H]4C[C@](C)(C(=O)N5CCN(C)CC5)CC[C@]4(C)CC[C@]32C)[C@@]1(C)CCC#N in this test
inactive

Query: recorded result category for Clc1ccc2c(c1)-c1ccccc1C1=NCCN12 in this test
inactive

Query: recorded result category for CC[C@H](Nc1nc(N)nc(N)c1Cl)c1nc2cccc(NCc3ccc(C(=O)NO)cc3)c2c(=O)n1-c1ccccc1 in this test
inactive

Query: recorded result category for COc1c(B(O)O)cccc1-c1nc2ccc3[nH]ncc3c2c2c1CCCC2 in this test
active

Query: recorded result category for CNCc1cccc2c1OCCOCCOCCC(C)S(=O)(=O)c1ccc(cc1)-c1cnc(N)c(n1)C(=O)N2 (stereo not drawn) in this test
inactive

Query: recorded result category for CCOc1cccc(/C=N/NC(=O)c2ccc(Nc3ccnc(C(F)(F)F)c3)cc2)c1O in this test
inactive

Query: recorded result category for [O-]/[N+](=C\c1ccccc1)CC1(O)CCCCC1 in this test
inactive

====

# System: A549/ATCC NSCLC
# testSummary: NCI-60 one-dose screen, 48 h (100 = growth as untreated, 0 = no growth, -100 = all killed)
# measurementContext: 10 µM unless noted
Compounds without any hit were thinned out: in the full panel of roughly 83,000, 20% have a hit.
Label True when growth >= 90%; otherwise False.

molecule | groupLabel
COc1cccc(NC(=O)[C@H](C(C)C)n2c(=O)[nH]c3ccccc3c2=O)c1 | True

Is growth for O=C(OCc1ccc2c(Br)cc(Br)c(O)c2n1)c1cc2ccccc2[nH]1 at or above 90%?
False

Is growth for O=C(Nc1ccc2ncnc(Nc3ccc(F)c(Cl)c3)c2c1)c1cccs1 at or above 90%?
False

Is growth for CCCCCCCCNC(C)C(O)c1ccc(SC(C)C)cc1 (configuration not stated) at or above 90%?
True

Is growth for C#CC[C@@H]1C[C@]2(C)[C@H]3CC=C4[C@H]5[C@@H](C)[C@H](C)CC[C@]5(C(=O)NCCCCCCCCN)CC[C@@]4(C)[C@]3(C)CC[C@H]2C(C)(C)[C@H]1OC(C)=O at or above 90%?
False

Is growth for COc1ccc2[nH]c(O)c(/C=c3/ccc4c(c3)N=C(c3ccc(C(F)(F)F)cc3)N=4)c2c1 at or above 90%?
False
